- targetOrTestSystem: T1, recombinant FAK FAT protein (fluorescence polarisation assay) (human)
- T1 construct: focal adhesion kinase (FAK), focal adhesion targeting (FAT) domain
- experimentSummary: fluorescence polarisation; competition: FAT 25 µM, TAMRA-LD2 L10D probe 0.1 µM, peptide titrated from 1.25 mM, 3 h; 20 mM Tris-Cl pH 8.0, 200 mM NaCl, 0.05% β-mercaptoethanol, 0.1% Triton-X 100, 5% glycerol; Ki calculated from IC50
- conditionDescription: both partners purified
Bridge positions count the residues as written; N and C are the ends. Square brackets hold non-standard residues; d marks the D form. R8 = C=CCCCCCC[C@@](C)(N)C(=O)O; R5 = C=CCCC[C@@](C)(N)C(=O)O; S5 = C=CCCC[C@](C)(N)C(=O)O
metricName: Ki

Ac-NLSELDRL[R5]LE[S5]N-NH2 (staple 9-12) [stapled peptide 1921] ... 492 µM

Could I get Ki for every one of these entries?
1. Ac-[R8]ELDRLL[S5]-NH2 (staple 1-8) [truncated stapled peptide 2011]
2. Ac-NL[R8]QLDRLL[S5]QLN-NH2 (staple 3-10) [stapled peptide 1910]
3. Ac-NLSE[R8]DRLLLE[S5]N-NH2 (staple 5-12) [stapled peptide 1914]
4. Ac-NLSELDR[S5]LLE[S5]N-NH2 (staple 8-12) [stapled peptide 2015]

Ans.
1: > 333 µM; 2: 46.8 µM; 3: > 1250 µM; 4: 114 µM

Qu. Could you tell me which Ki is on file for Ac-NLSE[S5]DRL[S5]LELN-NH2 (staple 5-9) [stapled peptide 1919] ?
Ans. 38.6 µM
